assay: Toxicity liver stage against HepG2, at 10uM; type: cell-based; parameters: test concentration 10 uM, cell line HepG2-A16-CD81EGFP; conditions: human, HepG2-A16-CD81EGFP cells; read-out: INHIBITION
readout: cytotoxicity at 10 µM (%)
Answers are plain numbers, in %.

>>> measured("N#Cc1c(F)cccc1NCCCOCC1CCOCC1")
-1.25

Okay, here is my list. What is cytotoxicity at 10 µM for each of these?
1. CC(=O)Nc1nc(C2CCN(C(C)C)CC2)cs1
2. O=c1[nH][nH]c2cn(-c3ccc(Cl)cc3)c(=O)n12
3. O=C(c1cnccn1)N1CC[C@H]2C[C@@H](c3ccncn3)O[C@@H]2C1

1: -3.3; 2: 6.45; 3: -78.5

Okay, here is my list. What is cytotoxicity at 10 µM for each of these?
1. O=C(NC1CCCNC1)c1cc(COc2cccc(C(F)(F)F)c2)[nH]n1 (stereo unspecified)
2. O=C(CCCN1CCCCC1)NC(C(=O)O)c1cccc(F)c1 (stereo unspecified)
3. CC(C)(C)C(=O)N1CCC(n2cc(C3(O)CCCC3)nn2)CC1
4. Cn1cccc1C(=O)N1C[C@@H]2CC[C@H]1CN(Cc1cscn1)C2
5. Cc1nnc(CNCC2(O)CCCN(Cc3ccc(F)c(F)c3)C2=O)[nH]1 (stereo unspecified)

[-1.31, 1.91, 3.15, 2.9, -6.79]

Okay, here is my list. What is cytotoxicity at 10 µM for each of these?
1. CC(C)(C)SCCNC(=O)[C@@]12CNC[C@@H]1CN(S(C)(=O)=O)C2
2. c1cn2c(n1)CO[C@@H](CNCc1ccc3c(c1)OCO3)C2

0.251
2
